Data origin, for the record: patent US7786108B2

System: transgenic mice that express both human CETP and human apolipoprotein A-1
ASSAY_EXPLANATION: In vivo assay of plasma lipids: elevation of HDL cholesterol
CONDITION_SUMMARY: Mus musculus; single oral dose 30 mg/kg; HDL cholesterol in serum at 8 hr after administration; relative to a control; read-out: % HDL cholesterol increase

STRUCTURE | TESTED_TARGET | UNITS_SYMBOL | change in vivo at 30 mg/kg
Cc1cc2c(cc1C(F)(F)F)N(C1CCOCC1)CCC[C@@H]2N(Cc1cc(C(F)(F)F)cc(C(F)(F)F)c1)c1nnn(C)n1 | transgenic mice that express both human CETP and human apolipoprotein A-1 | % | 130
Cc1cc2c(c(C)c1C(F)(F)F)N(CCC(C)(C)CC(=O)O)CCC[C@@H]2N(Cc1cc(C(F)(F)F)cc(C(F)(F)F)c1)c1nnn(C)n1 | transgenic mice that express both human CETP and human apolipoprotein A-1 | % | 99
Cc1cc(N(Cc2cc(C(F)(F)F)cc(C(F)(F)F)c2)[C@H]2CCCN(C[C@H]3CC[C@H](CC(=O)O)CC3)c3cc(C(F)(F)F)c(C)cc32)on1 | transgenic mice that express both human CETP and human apolipoprotein A-1 | % | 154
Cc1cc2c(cc1C(F)(F)F)N(CC1CCCC1)CCC[C@@H]2N(Cc1cc(C(F)(F)F)cc(C(F)(F)F)c1)c1nnn(CCO)n1 | transgenic mice that express both human CETP and human apolipoprotein A-1 | % | 128
Cc1c2c(cc3c1N(CC1CCCC1)CCC[C@@H]3N(Cc1cc(C(F)(F)F)cc(C(F)(F)F)c1)c1nnn(C)n1)COC2 | transgenic mice that express both human CETP and human apolipoprotein A-1 | % | 95
Cc1cc2c(c(C)c1C(F)(F)F)N(Cc1ccncc1)CCC[C@@H]2N(Cc1cc(C(F)(F)F)cc(C(F)(F)F)c1)c1nnn(C)n1 | transgenic mice that express both human CETP and human apolipoprotein A-1 | % | 165
